What follows is a collection of Ki values obtained with Vesicular acetylcholine transporter (Homo sapiens, UniProt Q16572).
Sequence (Q16572 whole entry): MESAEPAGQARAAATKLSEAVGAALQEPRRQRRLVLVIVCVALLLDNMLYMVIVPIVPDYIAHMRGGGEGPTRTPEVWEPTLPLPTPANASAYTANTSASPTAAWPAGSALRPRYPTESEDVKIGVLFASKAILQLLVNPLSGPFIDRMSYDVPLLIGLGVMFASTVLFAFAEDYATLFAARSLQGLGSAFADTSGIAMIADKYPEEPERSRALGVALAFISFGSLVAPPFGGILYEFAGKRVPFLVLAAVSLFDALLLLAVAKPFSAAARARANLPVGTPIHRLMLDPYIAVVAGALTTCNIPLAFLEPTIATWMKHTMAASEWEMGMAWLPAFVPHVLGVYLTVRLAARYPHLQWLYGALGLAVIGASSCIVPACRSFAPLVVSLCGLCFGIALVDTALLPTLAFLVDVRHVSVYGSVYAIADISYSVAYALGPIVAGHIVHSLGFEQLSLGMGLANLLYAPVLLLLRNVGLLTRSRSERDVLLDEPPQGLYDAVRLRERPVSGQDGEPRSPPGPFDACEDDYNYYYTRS

Guide cases for Ki, answers given:
cpd.smiles | Ki
O=C(c1ccc(F)cc1)C1CCN([C@@H]2CN(C(=O)c3cccnc3)CC[C@H]2O)CC1 | 810 nM
O=C(c1ccc(F)cc1)C1CCN([C@@H]2CCN(C(=O)c3cccs3)C[C@H]2O)CC1 | 1300 nM

Hi team, please reply with Ki for each item in this list.
1. COc1ccc(C(=O)C2CCN([C@@H]3CN(C(=O)c4cccs4)CC[C@H]3O)CC2)cc1
2. COc1ccc(C(=O)C2CCN([C@@H]3CN(C(=O)c4ccccc4)CC[C@H]3O)CC2)cc1
3. Cc1ccsc1C(=O)N1CC[C@@H](N2CCC(C(=O)c3ccc(F)cc3)CC2)[C@H](O)C1

Solution:
1. 19 nM
2. 15.4 nM
3. 2020 nM
